Target: HERG (Homo sapiens, UniProt Q12809)
Construct: expressed in transfected cells; host or cells: HEK cells
Sequence (Q12809 whole entry): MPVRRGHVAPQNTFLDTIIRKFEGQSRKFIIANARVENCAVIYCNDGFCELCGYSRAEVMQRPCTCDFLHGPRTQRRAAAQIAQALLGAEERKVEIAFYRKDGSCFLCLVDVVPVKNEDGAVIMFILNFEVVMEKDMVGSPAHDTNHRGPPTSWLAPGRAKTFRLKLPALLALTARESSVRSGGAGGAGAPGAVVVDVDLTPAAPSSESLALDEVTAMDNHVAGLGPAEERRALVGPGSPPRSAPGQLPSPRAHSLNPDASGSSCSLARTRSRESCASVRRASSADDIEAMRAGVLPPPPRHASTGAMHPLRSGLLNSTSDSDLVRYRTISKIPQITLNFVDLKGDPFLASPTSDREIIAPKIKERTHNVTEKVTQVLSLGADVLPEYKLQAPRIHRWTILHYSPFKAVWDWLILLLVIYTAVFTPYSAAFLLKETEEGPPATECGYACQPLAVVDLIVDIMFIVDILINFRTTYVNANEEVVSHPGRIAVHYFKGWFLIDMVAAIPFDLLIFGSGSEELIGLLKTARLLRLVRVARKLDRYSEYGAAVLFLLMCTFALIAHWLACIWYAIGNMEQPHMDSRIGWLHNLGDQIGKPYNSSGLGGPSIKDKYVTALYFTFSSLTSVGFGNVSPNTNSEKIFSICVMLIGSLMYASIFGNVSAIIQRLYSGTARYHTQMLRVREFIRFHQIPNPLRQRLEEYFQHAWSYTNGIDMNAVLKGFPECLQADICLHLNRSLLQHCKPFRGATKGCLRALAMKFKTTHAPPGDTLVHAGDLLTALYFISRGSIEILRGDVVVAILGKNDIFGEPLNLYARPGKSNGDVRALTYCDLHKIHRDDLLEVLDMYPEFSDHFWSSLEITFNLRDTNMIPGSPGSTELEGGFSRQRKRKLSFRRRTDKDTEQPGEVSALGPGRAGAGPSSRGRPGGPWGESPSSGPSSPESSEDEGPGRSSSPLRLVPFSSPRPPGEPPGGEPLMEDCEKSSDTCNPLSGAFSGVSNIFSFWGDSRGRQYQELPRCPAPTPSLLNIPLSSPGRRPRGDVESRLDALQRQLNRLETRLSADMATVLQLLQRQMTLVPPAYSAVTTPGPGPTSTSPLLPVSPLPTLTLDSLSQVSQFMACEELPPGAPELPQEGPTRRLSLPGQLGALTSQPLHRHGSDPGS
Test: HERG Patch Clamp EP (whole cell patch clamp, tail currents; single point at 10 μM and IC50)
Assay type: cell-based
Settings: human, HEK cells stably overexpressing HERG, single point at 10 μM, HERG in HEK cells, read-out: HERG % Inhib. @ 10 μM
Measured attribute: inhibition at 10 µM (%)

Molecule: COc1ccc(CCN2C(=O)C3(CCN(CC(N)=O)CC3)N(C)C2c2ccc(C3CC3)cc2)cc1 (stereo not shown)
Measured target: HERG (Homo sapiens, UniProt Q12809)
Measured attribute: inhibition at 10 µM
Units label: %
Recorded value: 71

Molecule: COc1ccc(CCN2C(=O)C3(CCN(C(N)=O)CC3)N(C)[C@@H]2c2ccc(C3CC3)cc2)cc1
Measured target: HERG (Homo sapiens, UniProt Q12809)
Measured attribute: inhibition at 10 µM
Units label: %
Recorded value: 13

Molecule: COc1ccc(CCN2C(=O)C3(CCN(C(N)=O)CC3)N(C)C2c2ccc(OC(F)F)cc2)cc1 (stereo not shown)
Measured target: HERG (Homo sapiens, UniProt Q12809)
Measured attribute: inhibition at 10 µM
Units label: %
Recorded value: 57

Molecule: COc1ccc(CCN2C(=O)C3(CCN(C(=O)C4CC4)CC3)N(C)C2c2ccc(OC(F)F)cc2)cc1 (stereo not shown)
Measured target: HERG (Homo sapiens, UniProt Q12809)
Measured attribute: inhibition at 10 µM
Units label: %
Recorded value: 85

Molecule: COc1ccc(CCN2C(=O)C3(CCN(C(=O)N4CCOCC4)CC3)N(C)C2c2ccc(C3CC3)cc2)cc1 (stereo not shown)
Measured target: HERG (Homo sapiens, UniProt Q12809)
Measured attribute: inhibition at 10 µM
Units label: %
Recorded value: 27

Molecule: COc1ccc(CCN2C(=O)C3(CCN(C(=O)N4CCN(C)CC4)CC3)N(C)C2c2ccc(C3CC3)cc2)cc1 (stereo not shown)
Measured target: HERG (Homo sapiens, UniProt Q12809)
Measured attribute: inhibition at 10 µM
Units label: %
Recorded value: 58

Molecule: CONC(=O)N1CCC2(CC1)C(=O)N(CCc1ccc(OC)cc1)C(c1ccc(C3CC3)cc1)N2C (stereo not shown)
Measured target: HERG (Homo sapiens, UniProt Q12809)
Measured attribute: inhibition at 10 µM
Units label: %
Recorded value: 23

Molecule: COc1ccc(CCN2C(=O)C3(CCN(C(=O)NC(C)C)CC3)N(C)C2c2ccc(C3CC3)cc2)cc1 (stereo not shown)
Measured target: HERG (Homo sapiens, UniProt Q12809)
Measured attribute: inhibition at 10 µM
Units label: %
Recorded value: 48

Molecule: COc1ccc(CCN2C(=O)C3(CCN(C(=O)C4CC4)CC3)N(C)C2c2ccc(CC(C)C)cc2)cc1 (stereo not shown)
Measured target: HERG (Homo sapiens, UniProt Q12809)
Measured attribute: inhibition at 10 µM
Units label: %
Recorded value: 84

Molecule: COc1ccc(CCN2C(=O)C3(CCN(S(C)(=O)=O)CC3)N(C)C2c2ccc(C(F)(F)F)cc2)cc1 (stereo not shown)
Measured target: HERG (Homo sapiens, UniProt Q12809)
Measured attribute: inhibition at 10 µM
Units label: %
Recorded value: 50

Molecule: CN1C(c2ccc(C(C)(C)C)cc2)N(CCCc2ccccc2)C(=O)C12CCN(C(N)=O)CC2 (stereo not shown)
Measured target: HERG (Homo sapiens, UniProt Q12809)
Measured attribute: inhibition at 10 µM
Units label: %
Recorded value: 37

Molecule: CCN(CC)c1ccc(C2N(CCc3ccc(OC)cc3)C(=O)C3(CCN(C(N)=O)CC3)N2C)cc1 (stereo not shown)
Measured target: HERG (Homo sapiens, UniProt Q12809)
Measured attribute: inhibition at 10 µM
Units label: %
Recorded value: 5

Molecule: COc1ccc(CCN2C(=O)C3(CCN(C(=O)N4CCCC4)CC3)N(C)C2c2ccc(C3CC3)cc2)cc1 (stereo not shown)
Measured target: HERG (Homo sapiens, UniProt Q12809)
Measured attribute: inhibition at 10 µM
Units label: %
Recorded value: 77

Molecule: COc1ccc(CCN2C(=O)C3(CCN(C(=O)OC(C)(C)C)CC3)N(C)C2c2ccc(CC(C)C)cc2)cc1 (stereo not shown)
Measured target: HERG (Homo sapiens, UniProt Q12809)
Measured attribute: inhibition at 10 µM
Units label: %
Recorded value: 3

Molecule: COC(=O)N1CCC2(CC1)NC(c1ccc(C3CC3)cc1)N(CCc1ccc(OC)cc1)C2=O (stereo not shown)
Measured target: HERG (Homo sapiens, UniProt Q12809)
Measured attribute: inhibition at 10 µM
Units label: %
Recorded value: 2

Molecule: COc1ccc(CCN2C(=O)C3(CCN(C(=O)OC(C)(C)C)CC3)NC2c2ccc(OC(F)F)cc2)cc1 (stereo not shown)
Measured target: HERG (Homo sapiens, UniProt Q12809)
Measured attribute: inhibition at 10 µM
Units label: %
Recorded value: 62

Molecule: COc1ccc(CCN2C(=O)C3(CCN(C(N)=O)CC3)N(C)C2c2ccc(C(F)(F)F)cc2)cc1 (stereo not shown)
Measured target: HERG (Homo sapiens, UniProt Q12809)
Measured attribute: inhibition at 10 µM
Units label: %
Recorded value: 33

Molecule: CN(C)C(=O)N1CCC2(CC1)C(=O)N(CCCc1ccccc1)C(c1ccc(C3CC3)cc1)N2C (stereo not shown)
Measured target: HERG (Homo sapiens, UniProt Q12809)
Measured attribute: inhibition at 10 µM
Units label: %
Recorded value: 77

Molecule: COc1ccc(CCN2C(=O)C3(CCN(C(N)=O)CC3)N(C)C2c2ccc(C(C)(C)C)cc2)cc1 (stereo not shown)
Measured target: HERG (Homo sapiens, UniProt Q12809)
Measured attribute: inhibition at 10 µM
Units label: %
Recorded value: 40

Molecule: COc1ccc(CCN2C(=O)C3(CCN(S(C)(=O)=O)CC3)N(C)C2c2ccc(C(C)(C)C)cc2)cc1 (stereo not shown)
Measured target: HERG (Homo sapiens, UniProt Q12809)
Measured attribute: inhibition at 10 µM
Units label: %
Recorded value: 54

Molecule: COc1ccc(CCN2C(=O)C3(CCN(C(=O)OC(C)(C)C)CC3)NC2Cc2ccc(C(C)(C)C)cc2)cc1 (stereo not shown)
Measured target: HERG (Homo sapiens, UniProt Q12809)
Measured attribute: inhibition at 10 µM
Units label: %
Recorded value: 12

Molecule: COc1ccc(CCN2C(=O)C3(CCN(C(N)=O)CC3)N(C)[C@H]2c2ccc(C3CC3)cc2)cc1
Measured target: HERG (Homo sapiens, UniProt Q12809)
Measured attribute: inhibition at 10 µM
Units label: %
Recorded value: 24

* * *

Target: HERG (Homo sapiens)
Construct: expressed in transfected cells; host or cells: HEK cells
Test: HERG Patch Clamp EP (whole cell patch clamp, tail currents; single point at 10 μM and IC50)
Format: cell-based
Conditions: human, HEK cells stably overexpressing HERG, single point at 10 μM, HERG in HEK cells, read-out: HERG % Inhib. @ 10 μM
# reported inhibition at 10 µM; entries follow

Molecule: COc1ccc(CCN2C(=O)C3(CCN(C(=O)N4CCCCC4)CC3)N(C)C2c2ccc(C3CC3)cc2)cc1 (centres unmarked)
Units label: %
inhibition at 10 µM: 60
--
Molecule: COc1ccc(CCN2C(=O)C3(CCN(C(=O)NO)CC3)N(C)C2c2ccc(C3CC3)cc2)cc1 (centres unmarked)
Units label: %
inhibition at 10 µM: 5
--
Molecule: CN1C(c2ccc(C3CC3)cc2)N(CCc2ccc(OC(F)(F)F)cc2)C(=O)C12CCN(C(N)=O)CC2 (centres unmarked)
Units label: %
inhibition at 10 µM: 75
--
Molecule: COc1ccc(CCN2C(=O)C3(CCN(C(=O)c4ccno4)CC3)N(C)C2c2ccc(C3CC3)cc2)cc1 (centres unmarked)
Units label: %
inhibition at 10 µM: 81
--
Molecule: COc1ccc(CCN2C(=O)C3(CCN(C(=O)OC(C)(C)C)CC3)N(C)C2c2ccc(OC)cc2)cc1 (centres unmarked)
Units label: %
inhibition at 10 µM: 12
--
Molecule: COc1ccc(CCN2C(=O)C3(CCN(C(=O)C4CC4)CC3)N(C)C2c2ccc(C3CC3)cc2)cc1 (centres unmarked)
Units label: %
inhibition at 10 µM: 64
--
Molecule: CN1C(c2ccc(C3CC3)cc2)N(CCCc2ccccc2)C(=O)C12CCN(C(=O)C1CC1)CC2 (centres unmarked)
Units label: %
inhibition at 10 µM: 87
--
Molecule: COc1ccc(C2N(CCCc3ccccc3)C(=O)C3(CCN(C(=O)C4CC4)CC3)N2C)cc1 (centres unmarked)
Units label: %
inhibition at 10 µM: 32

* * *

Molecular target: HERG (Homo sapiens)
Assay: HERG Patch Clamp EP (whole cell patch clamp, tail currents; single point at 10 μM and IC50)
Conditions: concentration response
pIC50: −log10 of the molar value.
# reported pIC50; entries follow

Compound: CN1C(c2ccc(C3CC3)cc2)N(CCCc2ccccc2)C(=O)C12CCN(C(N)=O)CC2 (stereo not shown)
pIC50: 5.11
--
Compound: COc1ccc(CCN2C(=O)C3(CCN(CC(=O)N(C)C)CC3)N(C)C2c2ccc(C3CC3)cc2)cc1 (stereo not shown)
pIC50: 4.92
--
Compound: COc1ccc(CCN2C(=O)C3(CCN(C(N)=O)CC3)N(C)[C@@H]2c2ccc(C3CC3)cc2)cc1
pIC50: 4.89
--
Compound: COc1ccc(CCN2C(=O)C3(CCN(C(=O)C4CC4)CC3)N(C)C2c2ccc(C3CC3)cc2)cc1 (stereo not shown)
pIC50: 5.02
